Tested on: ACVR1B
Details: concentration: 1 μM, replicates: in singlicate; n = 1;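 further: KINOMEscan kinase panel screen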
readout: %Inh

Look over these answered cases.
COC(=O)Nc1nc2ccc(Oc3ccc(NC(=O)Nc4cc(C(F)(F)F)ccc4F)cc3)cc2n1C.Cl	0%
CCc1ccc(-c2ccc3c(c2)-c2c(cnn2C)S(=O)(=O)N3C)cc1	14%
CC(=O)Nc1nc2cnc(Nc3cc(NC(=O)c4cccc(C5(C#N)CC5)c4Cl)ccc3C)nc2s1	0%
CC(C)c1nc(-c2cccc(NS(=O)(=O)c3c(F)cccc3F)c2F)c(-c2ccnc(Nc3ccc(N4CCOCC4)nc3)n2)s1	90.5%
COc1cc2c(cc1OCCN1CCNCC1)ncc1c3ccc(C#N)cc3[nH]c21	0%
O=c1[nH]cc(-c2ccc(N3CCOCC3)cc2)c2sc(-c3cn[nH]c3)cc12	0%
Cl.Cl.NCC(NC(=O)c1cc(-c2ccccc2)c(-c2ccnc3[nH]ccc23)s1)c1ccccc1 (centres unmarked)	0%

Now examine the next entry.
Query :: Recorded %Inh of O=C(NC1CCN(c2ccnc(Nc3ccc(F)cc3)n2)C1)c1cc2ccccc2s1 (centres unmarked) , please.
Result :: 0%

---

What %Inh was measured for each of the following?
Test system: VPS34
Construct: gene PIK3C3
Conditions: concentration: 1 μM, replicates: in singlicate; n = 1
Numbers only, in %.

CCn1c(-c2nonc2N)nc2c(C#CC(C)(C)O)ncc(OCCCCN)c21.O=C(O)C(F)(F)F.O=C(O)C(F)(F)F	34
COc1cc(Nc2nccc(N3CCC(NC(=O)c4cc5ccccc5s4)C3)n2)cc(OC)c1OC (centres unmarked)	33
Clc1ccc(-c2nn3ncccc3c2-c2ccnc(Nc3ccc4c(c3)OCCO4)n2)cc1	0

Hi! Can you tell me %Inh for each of these compounds?
1. CSc1cccc2c(-c3ccncn3)c(-c3ccc(F)cc3)nn12
2. FC(F)(F)c1ccc(/C=C/c2cncnc2Nc2ccc3[nH]c(Cc4ccccc4)nc3c2)cc1

Result ::
1: 14; 2: 39

---

What %Inh was measured for each of the following?
Test system: MARK3
Settings: concentration: 1 μM, replicates: in singlicate; n = 1
Express the reported value numerically, then name its unit.

CCS(=O)(=O)c1ccc(OC)c(Nc2nccc(-c3c(-c4cccc(NC(=O)c5c(F)cccc5F)c4)nn4ncccc34)n2)c1	0%
Cn1cc(-c2[nH]c3cc(NC(=O)[C@H](N)C4CCCCC4)cc4c3c2C=NNC4=O)cn1	88%
C[C@@H](Oc1cc(-n2cnc3cc(-c4ccnc(NCCS(C)(=O)=O)c4)ccc32)sc1C(N)=O)c1ccccc1Cl	43%
CN1CCN(Cc2cccc(-c3ccc4c(Nc5ccc(Oc6ccccc6)cc5)ccnc4c3)c2)CC1	0%
Cc1ccc(C(=O)Nc2ccc(Nc3ccnc4cc(-c5nccs5)ccc34)cc2O)cc1.Cl	0%

Hi! Can you tell me %Inh for each of these compounds?
1. COc1ccc(CNC(=O)NC2CCN(c3ccnc(Nc4ccc(F)cc4)n3)CC2)cc1
2. Cc1ccc(F)c(C(=O)Nc2cccc(-c3nn4ccccc4c3-c3ccnc(Nc4cccc(F)c4)n3)c2)c1F
3. COc1cc(Nc2nccc(-c3c(-c4cccc(NC(=O)c5c(F)cccc5F)c4)nn4ncccc34)n2)cc(OC)c1OC

Result ::
1: 0%; 2: 0%; 3: 30%

---

Tested on: BMX
Conditions: concentration: 1 μM, replicates: in singlicate; n = 1
Threshold 20%: %Inh strictly smaller gives MET, otherwise NOT MET.

Worked examples, 3 compounds total:
C[C@@H](Oc1cc(-n2cnc3cc(-c4ccnc(NCCS(C)(=O)=O)c4)ccc32)sc1C(N)=O)c1ccccc1Cl	NOT MET
O=C(Nc1cccc(-c2nn3ncccc3c2-c2ccnc(Nc3ccccc3)n2)c1)c1c(F)cccc1F	NOT MET
Nc1ncc(-c2ccc3nccc(-c4ccncc4)c3c2)cc1S(=O)(=O)N1CCOCC1	MET

# ---- query compound ----
Query :: Find out if reported %Inh for Cl.Cl.NCC(C(=O)Nc1cc(Br)c(-c2ccnc3[nH]ccc23)s1)c1ccccc1 (centres unmarked) is less than 20%
Result :: MET

---

Tested on: INSR
Settings: concentration: 1 μM, replicates: in singlicate; n = 1
readout: %Inh
Express the reported value numerically, then name its unit.

Look over these answered cases.
O=C(Nc1cccc(-c2nn3ccccc3c2-c2ccnc(Nc3cccc(C(F)(F)F)c3)n2)c1)c1c(F)cccc1F [GSK292658]	16%
COc1cc(Nc2nccc(N3CCC(NC(=O)Nc4cccc(C(C)=O)c4)C3)n2)cc(OC)c1OC (centres unmarked) [GSK1379753]	1%
CC(=O)Nc1nc2cnc(Nc3cc(NC(=O)c4cccc(C5(C#N)CC5)c4Cl)ccc3C)nc2s1	0%
Cl.Cl.NCC(NCc1ccc(-c2ccnc3[nH]ccc23)s1)c1ccccc1 (centres unmarked) [GSK1321565]	0%
c1ccc(-c2cnc3nccnn23)cc1 [AH20685]	24%
Cl.c1ccc(-c2ccc3c(Nc4ccc5[nH]ccc5c4)ccnc3c2)nc1 [GW440138]	0%

Hi! Can you tell me %Inh for each of these molecules?
1. Oc1cc(Nc2ccnc3cc(I)ccc23)ccc1F [GW552771]
2. CC(=O)N1CCN(c2ccc(Nc3nccc(-c4sc(C(C)C)nc4-c4cccc(NS(=O)(=O)c5cccc(Cl)c5)c4)n3)cn2)CC1 [GSK1660437]
3. O=C(NC1CCN(c2ccnc(Nc3ccc(F)cc3)n2)C1)c1cc2ccccc2s1 (centres unmarked) [GSK1379716]

Result ::
0%
8%
70%

---

Tested on: IKK-epsilon
Construct: gene IKBKE
Conditions: concentration: 1 μM, replicates: in singlicate; n = 1
What %Inh was measured for each of the following?
Express the reported value numerically, then name its unit.

CSc1cccc2c(-c3ccncn3)c(-c3ccc(F)cc3)nn12 [GW514786]	5%

Hi! Can you tell me %Inh for each of these compounds?
1. Nc1ncc(-c2cccnc2)c2scc(-c3ccc4c(c3)CCN4C(=O)Cc3ccccc3)c12 [GSK683281]
2. Cl.NC(=O)c1cccc(Nc2nccc(Nc3ccc(Oc4c(Cl)cccc4Cl)c(Cl)c3)n2)c1 [GW659009]
3. COc1cc(Nc2nccc(-c3c(-c4cccc(NC(=O)c5c(F)cccc5F)c4)nn4ncccc34)n2)cc(OC)c1OC [GSK327238]
4. Cl.Cl.NCC(C(=O)Nc1cc(Br)c(-c2ccnc3[nH]ccc23)s1)c1ccccc1 (centres unmarked) [GSK1269851]
5. c1ccc(Oc2ccc(Nc3ccnc4cc(-c5ccc(CNCCN6CCOCC6)o5)ccc34)cc2)nc1 [GW567145]
6. COc1cccc(-c2ccc3c(NC(=O)C4CC4)n[nH]c3n2)c1 [SB-710903]
7. Cc1ccc(C(=O)N2CC[C@@H](O)C2)cc1-n1c(C)cc(OCc2ccc(F)cc2F)c(Br)c1=O

Result ::
["46%", "0%", "23%", "0%", "27%", "52%", "0%"]

---

Tested on: CHEK1
Conditions: concentration: 1 μM, replicates: in singlicate; n = 1
What %Inh was measured for each of the following?
Numbers only, in %.

CCCCc1nn2ncccc2c1-c1ccnc(Nc2ccc(N3CCN(C)CC3)cc2)n1	0
COc1ccc(-c2coc3ccc(-c4nnc(SCc5ccc(OC)c(C(F)(F)F)c5)o4)cc23)cc1	0
COc1cc(Nc2nccc(N3CCC(NC(=O)c4cc5ccccc5s4)C3)n2)cc(OC)c1OC (stereo not drawn)	0

Hi! Can you tell me %Inh for each of these compounds?
1. COc1cc(Nc2nccc(-c3c(-c4cccc(NC(=O)c5c(F)cccc5F)c4)nn4ccccc34)n2)cc(OC)c1OC
2. O=C(Nc1cccc(-c2nn3ccccc3c2-c2ccnc(Nc3cccc(F)c3)n2)c1)c1c(F)ccc(F)c1Cl

Result ::
[30, 15]

Hi! Can you tell me %Inh for each of these compounds?
1. Cn1cc(-c2[nH]c3cc(NC(=O)[C@H](N)C4CCCCC4)cc4c3c2C=NNC4=O)cn1
2. O=C(Nc1n[nH]c2cc(-c3ccoc3)ccc12)C1CC1
3. O=c1[nH]cc(-c2ccc(N3CCOCC3)cc2)c2sc(-c3cn[nH]c3)cc12
4. Fc1ccc(-c2ncn(C3CCNCC3)c2-c2ccnc(Oc3ccc(-c4ccccc4)cc3)n2)cc1

Result ::
1: 98.4; 2: 0; 3: 0; 4: 0

---

Tested on: EPHB6
Conditions: concentration: 1 μM, replicates: in singlicate; n = 1
What %Inh was measured for each of the following?
Give bare numbers, in %.

Look over these answered cases.
Cc1ccc(S(=O)(=O)Nc2ccc(Nc3nccc(Nc4cccc5[nH]ncc45)n3)cc2)cc1 [GSK581271]	31
Cc1occc1-c1ncc(OC[C@@H](N)Cc2c[nH]c3ccccc23)cc1-c1ccc2[nH]nc(C)c2c1.O=C(O)C(F)(F)F [GSK682037]	0
FC(F)(F)c1ccc(/C=C/c2cncnc2Nc2ccc3[nH]c(Cc4ccccc4)nc3c2)cc1 [GW709199]	0
NCCCC(NC(=O)c1cc(Br)c(-c2ccnc3[nH]ccc23)s1)c1ccccc1.O=C(O)C(F)(F)F.O=C(O)C(F)(F)F (stereo not drawn) [GSK1287544]	0
Nc1ncnc2c1nc(-c1ccccc1)n2-c1ccccc1 [SKF-97293]	16

Hi! Can you tell me %Inh for each of these compounds?
1. Clc1ccc(-c2nn3ncccc3c2-c2ccnc(Nc3ccc4c(c3)OCCO4)n2)cc1 [GW829116]
2. COc1cc(Nc2ncc3c(C)nc(-c4cc5ccccc5[nH]4)n3n2)cc(OC)c1OC [GW869516]
3. COc1ccc(-c2coc3ccc(-c4nnc(SCc5ccc(OC)c(C(F)(F)F)c5)o4)cc23)cc1
4. CCCCc1nn2ncccc2c1-c1ccnc(Nc2ccc(N3CCN(C)CC3)cc2)n1 [GW684941]

Result ::
1. 65
2. 0
3. 16
4. 97.7

Hi! Can you tell me %Inh for each of these compounds?
1. COCCOCCOc1cc2ncc3c4ccc(C#N)cc4[nH]c3c2cc1OC
2. CCS(=O)(=O)c1ccc(OC)c(Nc2nccc(-c3c(-c4cccc(NC(=O)c5c(F)cccc5F)c4)nn4ncccc34)n2)c1 [GSK326180]
3. COc1cccc(C(=O)Nc2cccc(Oc3ccc4nc(NC(=O)C5CC5)cn4n3)c2)c1
4. Cn1cc(-c2ccc3c(c2)CCN3C(=O)Cc2cccc(Cl)c2)c2c(N)ncnc21 [GSK2606590]
5. Cl.Cl.NCC(NCc1ccc(-c2ccnc3[nH]ccc23)s1)c1ccccc1 (stereo not drawn) [GSK1321565]
6. CCn1c(-c2nonc2N)nc2c(C#CC(C)(C)O)nc(OC[C@H](N)c3ccccc3)cc21 [GSK943949]
7. CN1CCN(Cc2cccc(-c3ccc4c(Nc5ccc(Oc6ccccc6)cc5)ccnc4c3)c2)CC1 [GW578342]
8. COc1cccc(C2=C(Nc3ccc(Cl)c(C(=O)O)c3)C(=O)NC2=O)c1 [SB-390769]

Result ::
[56, 16, 98.5, 86, 27, 28, 87, 100]

Hi! Can you tell me %Inh for each of these compounds?
1. COc1cc2c(cc1OCCN1CCNCC1)ncc1c3ccc(C#N)cc3[nH]c21
2. CSc1cccc2c(-c3ccncn3)c(-c3ccc(F)cc3)nn12 [GW514786]
3. O=C(Nc1cccc(-c2nn3ccccc3c2-c2ccnc(Nc3cccc(C(F)(F)F)c3)n2)c1)c1c(F)cccc1F [GSK292658]
4. CC(C)(C)c1ccc2nccc(Nc3cccc(O)c3)c2c1 [GW856795]
5. CC(=O)Nc1nc2cnc(Nc3cc(NC(=O)c4cccc(C5(C#N)CC5)c4Cl)ccc3C)nc2s1
6. O=C(Nc1cccc(-c2nn3ncccc3c2-c2ccnc(Nc3ccccc3)n2)c1)c1c(F)cccc1F [GSK198271]

Result ::
1. 55
2. 20
3. 25
4. 3
5. 64
6. 63

Hi! Can you tell me %Inh for each of these compounds?
1. Cc1cccc(Nc2nc(N[C@H]3CCNC3)ncc2C(N)=O)c1.Cl [GSK2197149]
2. Cn1cc(-c2ccc3c(c2)CCN3C(=O)Cc2cccc(F)c2)c2c(N)ncnc21 [GSK2603358]
3. c1ccc(Oc2ccc(Nc3ccnc4cc(-c5ccc(CNCCN6CCOCC6)o5)ccc34)cc2)nc1 [GW567145]
4. Cc1cccc(NC(=O)Nc2ccc(Oc3ncnc4ccn(C)c34)cc2)c1

Result ::
1. 0
2. 98.7
3. 98
4. 91

Reference for the values: paper PMC5540273
